Species: Rattus norvegicus
PROTOCOL DESCRIPTION: Open TG-GATES - Regimen: Single
Assay type: toxicity, organism-based, Sprague-Dawley
Set-up: regimen Single, gender Male, age 6 weeks
EXPERIMENTAL CONTEXT: in vivo, po, 300 mg/kg, 9 h, tissue Blood, route gavage, dose level Middle
MEASUREMENT TYPE: MCH (pg)
Give a bare numeral; the unit pg is implied.

COMPOUND: C[C@H](CS)C(=O)N1CCC[C@H]1C(=O)O
MCH [pg]: 21.4

Look up MCH for this compound: CCc1cc(C(N)=S)ccn1 [ETHIONAMIDE]
21.2

For `Clc1ccccc1CN1CCc2sccc2C1` then?
21.4

Can you check `O=C(O)c1cc(/N=N/c2ccc(S(=O)(=O)Nc3ccccn3)cc2)ccc1O` next?
21.6

---

Mono by entry:
Species: Rattus norvegicus
PROTOCOL DESCRIPTION: Open TG-GATES - Regimen: Single
Assay type: toxicity, organism-based, Sprague-Dawley
Parameters: regimen Single, gender Male, age 6 weeks
EXPERIMENTAL CONTEXT: in vivo, po, 100 mg/kg, 24 h, tissue Blood, route gavage, dose level Low
Could you give me the number in %? Just the number is fine.

Consider the compound `Clc1ccccc1CN1CCc2sccc2C1` and give its measured Mono.
2.8

Next compound up: `C[C@H](CS)C(=O)N1CCC[C@H]1C(=O)O`
6.4

Lookup `O=C(O)c1cn(C2CC2)c2cc(N3CCNCC3)c(F)cc2c1=O`
7

# repeat for CCc1cc(C(N)=S)ccn1 [ETHIONAMIDE]
12.8

Try this compound too: `O=C(O)c1cc(/N=N/c2ccc(S(=O)(=O)Nc3ccccn3)cc2)ccc1O`
2.8

---

Here, each record is paired with measured ALP data.
Organism: Rattus norvegicus
PROTOCOL DESCRIPTION: Open TG-GATES - Regimen: Single
Type: toxicity, organism-based, Sprague-Dawley
Parameters: regimen Single, gender Male, age 6 weeks
EXPERIMENTAL CONTEXT: in vivo, po, 300 mg/kg, 9 h, tissue Plasma, route gavage, dose level Middle
Give just the number in IU/L; leave the unit off.

Known results for compounds:
COMPOUND: Clc1ccccc1CN1CCc2sccc2C1
RESULT UNIT: IU/L
ALP: 859.4

COMPOUND: CCc1cc(C(N)=S)ccn1 [ETHIONAMIDE]
RESULT UNIT: IU/L
ALP: 660.4

COMPOUND: O=C(O)c1cn(C2CC2)c2cc(N3CCNCC3)c(F)cc2c1=O
RESULT UNIT: IU/L
ALP: 927.2

COMPOUND: O=C(O)c1cc(/N=N/c2ccc(S(=O)(=O)Nc3ccccn3)cc2)ccc1O
RESULT UNIT: IU/L
ALP: 961.6

Please examine the following record next.
Looking for the measured ALP of `C[C@H](CS)C(=O)N1CCC[C@H]1C(=O)O` , can you help?
667

---

Species: Rattus norvegicus
PROTOCOL DESCRIPTION: Open TG-GATES - Regimen: Daily Repeat
Format: toxicity, organism-based, Sprague-Dawley
Set-up: regimen Daily Repeat, gender Male, age 6 weeks
EXPERIMENTAL CONTEXT: in vivo, po, 0 mg/kg, […], tissue Kidney, route gavage, dose level Control, time 14 day
Form field: KIDNEY_L (one value per entry).
Write the numeric value and append its unit.

Please report the recorded KIDNEY_L for Cn1c(=O)c2[nH]cnc2n(C)c1=O.O [THEOPHYLLINE] .
1.3 g

And what about the compound O=C(O)c1cc(/N=N/c2ccc(S(=O)(=O)Nc3ccccn3)cc2)ccc1O [SULFASALAZINE] ?
1.2 g

Record: NC(=O)N1c2ccccc2C=Cc2ccccc21 [CARBAMAZEPINE]
1.3 g

Now try O=C(O)c1cn(C2CC2)c2cc(N3CCNCC3)c(F)cc2c1=O [CIPROFLOXACIN] .
1.2 g

Further, for NC(=O)N/N=C/c1ccc([N+](=O)[O-])o1 [NITROFURAZONE] ?
1.3 g

Input COc1ccc(Cc2nccc3cc(OC)c(OC)cc23)cc1OC [PAPAVERINE]
1.2 g

Now give it for CCc1cc(C(N)=S)ccn1 [ETHIONAMIDE] too.
1.3 g

Please answer likewise for COc1ccc2c(c1)c(CC(=O)O)c(C)n2C(=O)c1ccc(Cl)cc1 [INDOMETHACIN]
1.3 g

Follow-up item: CO[C@H]1/C=C/O[C@@]2(C)Oc3c(C)c(O)c4c(O)c(c(/C=N/N5CCN(C)CC5)c(O)c4c3C2=O)NC(=O)/C(C)=C\C=C\[C@H](C)[C@H](O)[C@@H](C)[C@@H](O)[C@@H](C)[C@H](OC(C)=O)[C@@H]1C [RIFAMPIN]
1.2 g

Field entry: Clc1ccccc1CN1CCc2sccc2C1 [TICLOPIDINE]
1.2 g

Then this compound: C[C@H](CS)C(=O)N1CCC[C@H]1C(=O)O [CAPTOPRIL]
1.3 g

// same read-out, input: CN(C)CCC=C1c2ccccc2CCc2ccccc21 [AMITRIPTYLINE]
1.2 g

Repeat with CC(=O)Oc1ccccc1C(=O)O [ASPIRIN]
1.3 g

What about CSc1ccc2c(c1)N(CCC1CCCCN1C)c1ccccc1S2 (centres undefined) [THIORIDAZINE] ?
1.3 g
